Assay: Dissociation constant, pKa of the compound
Type: physicochemical

[
  {
    "Entry smiles": "CC(C)c1nnc2ccc(-c3ocnc3-c3ccc(F)cc3)cn12",
    "pKa": 2.86
  }
]

---

Target: Tyrosine-protein kinase CSK (Homo sapiens)
Sequence (P41240 whole entry): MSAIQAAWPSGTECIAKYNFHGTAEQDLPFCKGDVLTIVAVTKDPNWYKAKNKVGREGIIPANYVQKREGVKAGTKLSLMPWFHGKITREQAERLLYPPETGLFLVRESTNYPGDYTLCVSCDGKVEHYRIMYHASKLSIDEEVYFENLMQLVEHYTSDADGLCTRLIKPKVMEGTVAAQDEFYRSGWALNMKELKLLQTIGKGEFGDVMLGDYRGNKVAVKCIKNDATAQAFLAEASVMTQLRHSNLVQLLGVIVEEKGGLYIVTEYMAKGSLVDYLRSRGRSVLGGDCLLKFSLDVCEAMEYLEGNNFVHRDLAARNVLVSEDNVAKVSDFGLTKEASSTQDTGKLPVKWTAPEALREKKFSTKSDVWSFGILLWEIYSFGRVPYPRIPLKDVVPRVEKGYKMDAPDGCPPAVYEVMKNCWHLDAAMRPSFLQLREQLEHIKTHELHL
pIC50: −log10 of the molar value.
Recorded endpoint: pIC50

[
  {
    "Entry smiles": "CCNc1nnc2ccc(-c3ocnc3-c3ccc(F)cc3)cn12",
    "Experimental system": "Tyrosine-protein kinase CSK (Homo sapiens)",
    "Reported measurement": "< 5.00"
  },
  {
    "Entry smiles": "CC(C)c1nnc2ccc(-c3ocnc3-c3ccc(F)cc3Cl)cn12",
    "Experimental system": "Tyrosine-protein kinase CSK (Homo sapiens)",
    "Reported measurement": "< 5.00"
  },
  {
    "Entry smiles": "CC(C)(C)c1nnc2ccc(-c3ocnc3-c3cc(F)c(F)cc3F)cn12",
    "Experimental system": "Tyrosine-protein kinase CSK (Homo sapiens)",
    "Reported measurement": "< 5.00"
  }
]
